# System: rat liver mitochondria (RLM)
# assay summary: Mitochondrial respiration of isolated RLM (Clark-type oxygen electrode): RCR, ADP/O
# Assay type: biochemical
# condition label: RLM, Succinate, 2.5 μM
Listing of entries alongside the reported ADP/O.
No unit in the answer, only the number.

>>> print(df.to_string())
                                   compound             target_under_test  observed_value
0  COC1=C(OC)C(=O)C(CCCCCCCCCC[P+](c2ccccc2)(c2ccccc2)c2ccccc2)=C(C)C1=O.CS(=O)(=O)[O-] [MitoQ, reference compound]  rat liver mitochondria (RLM)             1.3
1  O=C(NCCCCCC[P+](c1ccccc1)(c1ccccc1)c1ccccc1)c1ccc(O)c(O)c1.[Br-] [AntiOxBEN1]  rat liver mitochondria (RLM)             1.7
2  O=C(NCCCCCC[P+](c1ccccc1)(c1ccccc1)c1ccccc1)c1cc(O)c(O)c(O)c1.[Br-] [AntiOxBEN2]  rat liver mitochondria (RLM)             1.7

Moving on to the next compound.
Data request: What value of ADP/O has been reported for the following compound? O=C(CCCCC[P+](c1ccccc1)(c1ccccc1)c1ccccc1)NCCCCCCNC(=O)c1cc(O)c(O)c(O)c1.[Br-] [AntiOxBEN3]
Data returned: 1.6

====

# Maximum potential (ΔΨ in - mV) annotations
# System: rat liver mitochondria (RLM)
# assay summary: Mitochondrial transmembrane electric potential (safranine fluorescence)
# Assay type: biochemical
# condition label: Succinate, 2.5 μM

Would you please look over these solved cases?
>>> print(df.to_string())
                                   molecule     observed_value
0  O=C(CCCCC[P+](c1ccccc1)(c1ccccc1)c1ccccc1)NCCCCCCNC(=O)c1cc(O)c(O)c(O)c1.[Br-] [AntiOxBEN3]  203.6 ± 16.6 - mV
1  O=C(NCCCCCC[P+](c1ccccc1)(c1ccccc1)c1ccccc1)c1cc(O)c(O)c(O)c1.[Br-] [AntiOxBEN2]  197.6 ± 18.2 - mV
2  O=C(NCCCCCC[P+](c1ccccc1)(c1ccccc1)c1ccccc1)c1ccc(O)c(O)c1.[Br-] [AntiOxBEN1]  191.4 ± 18.2 - mV

// below: Maximum potential (ΔΨ in - mV) requested for another molecule
Data request: What does the data say about its Maximum potential (ΔΨ in - mV)? Entry: COC1=C(OC)C(=O)C(CCCCCCCCCC[P+](c2ccccc2)(c2ccccc2)c2ccccc2)=C(C)C1=O.CS(=O)(=O)[O-] [MitoQ, reference compound]
Data returned: 181.6 ± 8.3 - mV

====

# reported ADP/O; entries follow
# Tested on: rat liver mitochondria (RLM)
# assay summary: Mitochondrial respiration of isolated RLM (Clark-type oxygen electrode): RCR, ADP/O
# Assay type: biochemical
# condition label: RLM, Succinate, 5 μM
API note: the answer field is a bare number with no unit suffix.

In [3]: df
Out[3]:
                                   compound  observed_value
0  O=C(NCCCCCC[P+](c1ccccc1)(c1ccccc1)c1ccccc1)c1cc(O)c(O)c(O)c1.[Br-] [AntiOxBEN2]             1.7
1  O=C(CCCCC[P+](c1ccccc1)(c1ccccc1)c1ccccc1)NCCCCCCNC(=O)c1cc(O)c(O)c(O)c1.[Br-] [AntiOxBEN3]             1.6
2  COC1=C(OC)C(=O)C(CCCCCCCCCC[P+](c2ccccc2)(c2ccccc2)c2ccccc2)=C(C)C1=O.CS(=O)(=O)[O-] [MitoQ, reference compound]             1.3

Data request: So what's the measured ADP/O for this one? O=C(NCCCCCC[P+](c1ccccc1)(c1ccccc1)c1ccccc1)c1ccc(O)c(O)c1.[Br-] [AntiOxBEN1]
Data returned: 1.6

====

# System: rat liver mitochondria (RLM)
# assay summary: Mitochondrial respiration of isolated RLM (Clark-type oxygen electrode): RCR, ADP/O
# Type: biochemical
# condition label: RLM, Glutamate/Malate, 5 μM
# Procedure: In an embodiment, and as an example, the toxicity effects of some AntiOxBENs and MitoQ on the mitochondrial bioenergetics, namely on RLM Δψ and respiration parameters, were measured. […] In addition, the mitochondrial oxidative phosphorylation coupling index, known as respiratory control ratio (RCR, state 3/state 4 respiration) and ADP/O index (the coupling between ATP synthesis and oxygen consumption) were also calculated. […]
value type: ADP/O
# answer = number (no unit)

Data request: Entry O=C(NCCCCCC[P+](c1ccccc1)(c1ccccc1)c1ccccc1)c1cc(O)c(O)c(O)c1.[Br-] [AntiOxBEN2] : reported ADP/O = ?
Data returned: 2.3

Data request: Which ADP/O is reported for this molecule? COC1=C(OC)C(=O)C(CCCCCCCCCC[P+](c2ccccc2)(c2ccccc2)c2ccccc2)=C(C)C1=O.CS(=O)(=O)[O-] [MitoQ, reference compound]
Data returned: 1.9

Data request: Value lookup for ADP/O; key = O=C(CCCCC[P+](c1ccccc1)(c1ccccc1)c1ccccc1)NCCCCCCNC(=O)c1cc(O)c(O)c(O)c1.[Br-] [AntiOxBEN3]
Data returned: 2.3

Data request: Need ADP/O, item O=C(NCCCCCC[P+](c1ccccc1)(c1ccccc1)c1ccccc1)c1ccc(O)c(O)c1.[Br-] [AntiOxBEN1]
Data returned: 2.8

====

# Test system: rat liver mitochondria (RLM)
# assay summary: Mitochondrial respiration of isolated RLM (Clark-type oxygen electrode): RCR, ADP/O
# Type: biochemical
# condition label: RLM, Glutamate/Malate, 10 μM
# Protocol: In an embodiment, and as an example, the toxicity effects of some AntiOxBENs and MitoQ on the mitochondrial bioenergetics, namely on RLM Δψ and respiration parameters, were measured. […] In addition, the mitochondrial oxidative phosphorylation coupling index, known as respiratory control ratio (RCR, state 3/state 4 respiration) and ADP/O index (the coupling between ATP synthesis and oxygen consumption) were also calculated. […]
Reported RCR is given for each of the following compounds.
Keep the answer to the number alone.

Past entries and their recorded results:
>>> df
                                   compound  observed_value
0  O=C(NCCCCCC[P+](c1ccccc1)(c1ccccc1)c1ccccc1)c1ccc(O)c(O)c1.[Br-] [AntiOxBEN1]             2.6
1  O=C(NCCCCCC[P+](c1ccccc1)(c1ccccc1)c1ccccc1)c1cc(O)c(O)c(O)c1.[Br-] [AntiOxBEN2]             2.9
2  COC1=C(OC)C(=O)C(CCCCCCCCCC[P+](c2ccccc2)(c2ccccc2)c2ccccc2)=C(C)C1=O.CS(=O)(=O)[O-] [MitoQ, reference compound]             1.3

Kindly consider the entry below.
Data request: Would you kindly share the measured RCR for O=C(CCCCC[P+](c1ccccc1)(c1ccccc1)c1ccccc1)NCCCCCCNC(=O)c1cc(O)c(O)c(O)c1.[Br-] [AntiOxBEN3] ?
Data returned: 3.07

====

# System: rat liver mitochondria (RLM)
# assay summary: Mitochondrial respiration of isolated RLM (Clark-type oxygen electrode): RCR, ADP/O
# Format: biochemical
# condition label: RLM, Glutamate/Malate, 5 μM
Measured RCR accompanies every entry in the list below.
Please reply with the value in numeric form only.

Data request: So what's the measured RCR for this one? O=C(NCCCCCC[P+](c1ccccc1)(c1ccccc1)c1ccccc1)c1ccc(O)c(O)c1.[Br-] [AntiOxBEN1]
Data returned: 4.4

Data request: Data request, read-out RCR, for O=C(CCCCC[P+](c1ccccc1)(c1ccccc1)c1ccccc1)NCCCCCCNC(=O)c1cc(O)c(O)c(O)c1.[Br-] [AntiOxBEN3]
Data returned: 3.9

Data request: # RCR lookup, item O=C(NCCCCCC[P+](c1ccccc1)(c1ccccc1)c1ccccc1)c1cc(O)c(O)c(O)c1.[Br-] [AntiOxBEN2]
Data returned: 3.9

Data request: Which measured RCR value corresponds to COC1=C(OC)C(=O)C(CCCCCCCCCC[P+](c2ccccc2)(c2ccccc2)c2ccccc2)=C(C)C1=O.CS(=O)(=O)[O-] [MitoQ, reference compound] ?
Data returned: 2.7

====

# System: rat liver mitochondria (RLM)
# assay summary: Mitochondrial respiration of isolated RLM (Clark-type oxygen electrode): RCR, ADP/O
# Type: biochemical
# condition label: RLM, Succinate, 5 μM
value type: RCR
Keep it simple and answer with nothing but the number.

Example entries begin here.
                                   molecule  observed_value
0  O=C(NCCCCCC[P+](c1ccccc1)(c1ccccc1)c1ccccc1)c1cc(O)c(O)c(O)c1.[Br-] [AntiOxBEN2]             3.8
1  COC1=C(OC)C(=O)C(CCCCCCCCCC[P+](c2ccccc2)(c2ccccc2)c2ccccc2)=C(C)C1=O.CS(=O)(=O)[O-] [MitoQ, reference compound]             2.4

Data request: Given the entry O=C(NCCCCCC[P+](c1ccccc1)(c1ccccc1)c1ccccc1)c1ccc(O)c(O)c1.[Br-] [AntiOxBEN1] , report its measured RCR.
Data returned: 3.0

Data request: Which RCR is reported for this molecule? O=C(CCCCC[P+](c1ccccc1)(c1ccccc1)c1ccccc1)NCCCCCCNC(=O)c1cc(O)c(O)c(O)c1.[Br-] [AntiOxBEN3]
Data returned: 4.3
